tested on: BP3 cell line; assay: Annexin V-FITC and propidium iodide apoptosis assay, BP3; format: cell-based, human; details: Homo sapiens, BP3, 24 h; Annexin V-FITC and propidium iodide assay, 1 day
Exercise: for every item that follows, state its recorded pEC50.
Give bare numbers, as −log10 of the molar value.

molecule_smiles	observation_type	value
CC1=C(C2=C(C)C(=O)c3c(cc(O)c(O)c3C(=O)Cc3ccccc3)C2=O)C(=O)c2cc(O)c(O)c(C(=O)Cc3ccccc3)c2C1=O	pEC50	5.02

Read the next record carefully.
Query: Item under review: "CC1=C(C2=C(C)C(=O)c3c(cc(O)c(O)c3CCc3ccccc3)C2=O)C(=O)c2cc(O)c(O)c(CCc3ccccc3)c2C1=O" . Reported pEC50?
Reply: 5.06
